Data provenance: ChEMBL document CHEMBL3351503

Each item that follows carries a reported log10(Ki).
Biological target: Ectonucleotide pyrophosphatase/phosphodiesterase family member 1 (Homo sapiens)
Sequence (P22413 whole entry): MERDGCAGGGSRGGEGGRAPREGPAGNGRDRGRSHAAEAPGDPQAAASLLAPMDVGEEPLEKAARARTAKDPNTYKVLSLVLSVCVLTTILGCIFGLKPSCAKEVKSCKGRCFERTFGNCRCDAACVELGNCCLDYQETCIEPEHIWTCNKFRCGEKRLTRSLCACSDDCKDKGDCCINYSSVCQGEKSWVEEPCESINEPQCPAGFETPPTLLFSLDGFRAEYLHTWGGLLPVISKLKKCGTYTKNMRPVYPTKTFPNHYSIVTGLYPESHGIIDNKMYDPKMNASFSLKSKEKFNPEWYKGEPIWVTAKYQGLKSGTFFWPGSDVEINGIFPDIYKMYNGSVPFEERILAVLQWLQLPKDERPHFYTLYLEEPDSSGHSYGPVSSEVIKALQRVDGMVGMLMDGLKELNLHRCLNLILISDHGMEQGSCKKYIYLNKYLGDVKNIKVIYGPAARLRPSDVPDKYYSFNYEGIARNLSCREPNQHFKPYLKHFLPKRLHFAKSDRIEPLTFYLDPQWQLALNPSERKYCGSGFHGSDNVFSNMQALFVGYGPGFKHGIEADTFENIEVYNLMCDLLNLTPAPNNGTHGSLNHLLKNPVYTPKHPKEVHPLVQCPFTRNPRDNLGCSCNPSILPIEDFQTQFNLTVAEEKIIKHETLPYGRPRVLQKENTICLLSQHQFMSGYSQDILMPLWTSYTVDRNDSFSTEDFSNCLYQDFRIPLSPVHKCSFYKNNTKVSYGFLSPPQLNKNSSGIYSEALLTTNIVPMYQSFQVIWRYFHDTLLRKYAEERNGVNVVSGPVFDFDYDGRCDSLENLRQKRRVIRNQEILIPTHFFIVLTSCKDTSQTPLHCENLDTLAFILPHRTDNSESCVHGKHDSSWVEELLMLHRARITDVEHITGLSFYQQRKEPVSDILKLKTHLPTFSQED
Assay: Competitive inhibition of human NPP1 using p-Nph-5'-TMP as substrate by Lineweaver-Burk plot analysis
Lab note - Ki converted to log10 from values in nM.

Check out these entries, answers already filled in.
• COc1ccc(NC(=O)CSc2nc3c(N)nc(N)nc3[nH]2)cc1OC = 3.54
• COc1ccc(NC(=O)CSc2nc3c(N)nc(SC)nc3[nH]2)cc1OC = 2.18
• COc1ccc(NC(=O)CSc2nc3cnccc3[nH]2)cc1OC = 1.65

Input COc1ccc(NC(=O)CSc2nc3c(=O)[nH]c(=O)[nH]c3[nH]2)cc1OC . Output log10(Ki): 1.55

Input COc1ccc(NC(=O)CSc2nc3c(N)ncnc3[nH]2)cc1OC . Output log10(Ki): 0.70

Input COc1ccc(NC(=O)CSc2nc3cncnc3[nH]2)cc1OC . Output log10(Ki): 2.45
